measured_target: CCKB receptor (Mus musculus, UniProt P56481)
Construct: The cortex was dissected, weighed and homogenised in 40ml ice-cold buffer; tissue Charles River (supplier of the CD1 mice); host or cells: cerebral cortex membranes of male CD1 mice
Sequence (P56481 whole entry): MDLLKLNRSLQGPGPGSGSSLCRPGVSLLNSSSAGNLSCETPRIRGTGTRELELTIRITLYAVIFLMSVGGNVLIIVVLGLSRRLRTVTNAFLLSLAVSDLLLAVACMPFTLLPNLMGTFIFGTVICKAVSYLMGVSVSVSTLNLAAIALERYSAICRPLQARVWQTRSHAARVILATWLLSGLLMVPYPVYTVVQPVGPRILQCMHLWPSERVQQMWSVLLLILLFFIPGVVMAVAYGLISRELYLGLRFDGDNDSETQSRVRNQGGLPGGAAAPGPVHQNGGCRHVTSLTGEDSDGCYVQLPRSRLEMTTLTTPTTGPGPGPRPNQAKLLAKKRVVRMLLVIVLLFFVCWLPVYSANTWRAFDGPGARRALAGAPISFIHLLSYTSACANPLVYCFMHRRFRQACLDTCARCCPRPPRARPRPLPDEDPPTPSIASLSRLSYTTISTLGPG
protocol_text: CCKB receptor radioligand binding assay in mouse cortical membranes ([125I]-CCK8S)
run_parameters: [125I]-CCK8S 200 pM, 150 min at 21±3°, read-out: CCKB pKi (converted)
measured_metric: Ki

Record excerpt, results attached:
mol=O=C(O)c1cc(NC(=O)[C@@H](Cc2ccccc2)NC(=O)c2cc3[nH]cnc3cc2C(=O)NCC23CC4CC(CC(C4)C2)C3)cc(C(=O)O)c1 measured_target="CCKB receptor (Mus musculus, UniProt P56481)" measured_metric=Ki assay_result="3.98 nM"
mol=O=C(NCC12CC3CC(CC(C3)C1)C2)c1cc2nc[nH]c2cc1C(=O)N[C@@H](Cc1ccccc1F)C(=O)Nc1cc(-c2nn[nH]n2)cc(-c2nn[nH]n2)c1 measured_target="CCKB receptor (Mus musculus, UniProt P56481)" measured_metric=Ki assay_result="2.51 nM"
mol=O=C(NCC12CC3CC(CC(C3)C1)C2)c1cc2nc[nH]c2cc1C(=O)N[C@@H](Cc1ccccc1)C(=O)Nc1cccc(S(=O)(=O)NC(=O)C(F)(F)F)c1 measured_target="CCKB receptor (Mus musculus, UniProt P56481)" measured_metric=Ki assay_result="6.31 nM"
mol=O=C(O)c1cc(NC(=O)[C@H](Cc2ccccc2F)NC(=O)c2cc3[nH]ccc3cc2C(=O)NCC23CC4CC(CC(C4)C2)C3)cc(C(=O)O)c1 measured_target="CCKB receptor (Mus musculus, UniProt P56481)" measured_metric=Ki assay_result="5.01 nM"
mol=O=C(O)c1cc(NC(=O)[C@H](Cc2ccccc2)NC(=O)c2cc3[nH]ccc3cc2C(=O)NCC23CC4CC(CC(C4)C2)C3)cc(C(=O)O)c1 measured_target="CCKB receptor (Mus musculus, UniProt P56481)" measured_metric=Ki assay_result="12.6 nM"

Entry under test: O=C(O)c1cc(NC(=O)[C@@H]2Cc3ccccc3CN2C(=O)c2cc3[nH]cnc3cc2C(=O)NCC23CC4CC(CC(C4)C2)C3)cc(C(=O)O)c1 . Its Ki was 200 nM

* * *

measured_target: gastrin (Rattus norvegicus, UniProt P30553)
Construct: The stomach was lowered into a jacketed organ bath containing 40 ml of buffered solution; from tissue; host or cells: isolated perfused whole stomach of immature rats (ca. 21 days old)
Sequence (P30553 1-452): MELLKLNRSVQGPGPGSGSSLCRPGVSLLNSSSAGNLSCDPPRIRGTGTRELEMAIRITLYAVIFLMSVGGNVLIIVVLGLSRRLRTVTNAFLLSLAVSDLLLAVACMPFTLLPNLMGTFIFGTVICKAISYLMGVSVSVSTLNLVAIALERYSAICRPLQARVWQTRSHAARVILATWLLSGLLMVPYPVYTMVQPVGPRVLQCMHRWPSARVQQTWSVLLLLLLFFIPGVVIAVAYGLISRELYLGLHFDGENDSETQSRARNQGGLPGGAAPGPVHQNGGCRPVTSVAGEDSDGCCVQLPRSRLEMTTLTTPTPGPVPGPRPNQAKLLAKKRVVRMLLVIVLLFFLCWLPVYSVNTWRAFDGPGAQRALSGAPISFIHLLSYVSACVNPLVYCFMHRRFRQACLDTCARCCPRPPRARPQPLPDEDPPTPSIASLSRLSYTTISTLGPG
protocol_text: gastrin antagonist activity in an immature rat stomach assay (pentagastrin-stimulated acid secretion)
run_parameters: cumulative pentagastrin dose-response curves after 60 min with drug
Protocol: The compounds of the examples were also tested for gastrin antagonist activity in an immature rat stomach assay. The procedure was as follows: […] After 120 min of stabilisation the drugs were added directly to the serosal solution in the organ bath and after a further 60 min cumulative pentagastrin dose-response curves were started. Changes in acid secretion were monitored and the curves analysed according to Black et.al., Br. J. Pharmacol., 1985, 86, 581.
measured_metric: Gastrin pKB
Form rule: numeric answer, no unit written next to it.

Record excerpt, results attached:
mol=O=C(O)c1cc(NC(=O)[C@H](Cc2ccccc2)NC(=O)c2cc3ccsc3cc2C(=O)NCC23CC4CC(CC(C4)C2)C3)cc(C(=O)O)c1 assay_result=9.4
mol=O=C(O)c1cccc(NC(=O)[C@H](Cc2ccccc2)NC(=O)c2cc3cc[nH]c3cc2C(=O)NCC23CC4CC(CC(C4)C2)C3)c1 assay_result=8.0
mol=CC(C)(C)NS(=O)(=O)c1cc(NC(=O)[C@H](Cc2ccccc2)NC(=O)c2cc3cc[nH]c3cc2C(=O)NCC23CC4CC(CC(C4)C2)C3)cc(S(=O)(=O)NC(C)(C)C)c1 assay_result=5.9
mol=O=C(O)c1ccc(C(=O)O)c(NC(=O)[C@H](Cc2ccccc2)NC(=O)c2cc3[nH]cnc3cc2C(=O)NCC23CC4CC(CC(C4)C2)C3)c1 assay_result=8.6
mol=C[C@H](NC(=O)c1cc2[nH]cnc2cc1C(=O)NCC1CCCCCC1)C(=O)Nc1cc(C(=O)O)cc(C(=O)O)c1 assay_result=6.3

Shifting focus to the compound that follows.
Entry under test: O=C(O)c1cc(NC(=O)[C@H](Cc2ccccc2)NC(=O)c2c(C(=O)NCC34CC5CC(CC(C5)C3)C4)ccc3[nH]cnc23)cc(C(=O)O)c1 . Its Gastrin pKB was 7.2
